- TARGET_DESC: APOBEC3A (A3A) wild-type (Homo sapiens, UniProt P31941 1-199)
- Sequence (P31941 whole entry): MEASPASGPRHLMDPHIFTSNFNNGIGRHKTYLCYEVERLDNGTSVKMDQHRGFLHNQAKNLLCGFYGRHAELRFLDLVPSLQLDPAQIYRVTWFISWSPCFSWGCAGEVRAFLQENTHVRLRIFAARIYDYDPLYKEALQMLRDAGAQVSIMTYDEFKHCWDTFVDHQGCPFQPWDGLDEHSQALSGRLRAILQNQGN
- EXPERIMENTAL_DETAILS: NMR titration
Below, each entry is listed with its recorded Kd.

BINDER: ATTTUATTT (ssDNA, dU at position 5) [ATTTUATTT (9-nt product)]
Kd, µM: 58

BINDER: ATTATTTUATTTATT (ssDNA, dU at position 8) [ATTATTTUATTTATT (15-nt product)]
Kd, µM: 57
